Biological target: T1, mouse Ang-2 (mouse, UniProt O35608)
T1 chain: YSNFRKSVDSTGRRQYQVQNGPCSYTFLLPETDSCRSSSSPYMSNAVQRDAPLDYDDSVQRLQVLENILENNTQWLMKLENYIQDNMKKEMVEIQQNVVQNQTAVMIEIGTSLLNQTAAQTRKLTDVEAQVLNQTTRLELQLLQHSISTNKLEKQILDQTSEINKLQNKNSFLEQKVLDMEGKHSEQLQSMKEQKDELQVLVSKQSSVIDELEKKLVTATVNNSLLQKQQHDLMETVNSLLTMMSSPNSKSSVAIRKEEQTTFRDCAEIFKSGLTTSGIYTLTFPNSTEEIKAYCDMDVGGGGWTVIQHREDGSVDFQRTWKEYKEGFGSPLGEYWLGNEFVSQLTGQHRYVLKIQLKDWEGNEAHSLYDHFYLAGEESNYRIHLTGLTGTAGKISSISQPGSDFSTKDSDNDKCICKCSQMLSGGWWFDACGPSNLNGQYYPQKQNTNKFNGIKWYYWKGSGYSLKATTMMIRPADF
Test: competition ELISA vs Tie-2
Primed or numbered codes have the meaning given here. Where no end group is shown, it is not given here. [ ]: non-standard residue; d: D form. Fc(3) = Fc: non-antigen-binding fragment of an antibody from proteolytic digestion of a whole antibody (vehicle); Fc = immunoglobulin Fc domain fused to the peptide (peptibody); Fc(7) = Fc domain, peptide fused N- or C-terminal to it
Field 'label' (enum: 1 / -1). Set to 1 when IC50 is strictly under 2 nM; else -1.

Field: example entries. Status: answers known.
Determine if 2xL1 (N) (designed binder) MGAQKFNPLDELEETLYEQFTFQQGGGGGGGGKFNPLDELEETLYEQFTFQQLEGGGGG[Fc(7)] shows IC50 strictly lower than 2 nM.
1

Determine if MGAQQYGCDGFLYGCMINLEGGGGG[Fc(7)] (not fully specified (bridges); printed as MGAQ-QYGCDGFLYGCMINLE-GGGGG-Fc; cysteine pairing not given here; also: Fc fusion domain at position 26) [C17 (N)] shows IC50 strictly lower than 2 nM.
-1

Determine if MGAQHQICKWDPWTCKHWLEGGGGGX (not fully specified (C-terminus, bridges); printed as MGAQ-HQICKWDPWTCKHWLEGGGGG-Fc; cysteine pairing not given here) [TN8-14 (N)] shows IC50 strictly lower than 2 nM.
-1

Determine if MGAQFDYCEGVEDPFTFGCDNHLEGGGGGX (not fully specified (C-terminus, bridges); printed as MGAQ-FDYCEGVEDPFTFGCDNHLE-GGGGG-Fc; cysteine pairing not given here) [TN12-9 (N)] shows IC50 strictly lower than 2 nM.
-1

Determine if MQEECEWDPWTCEHMGSGSATGGSGSTASSGSGSATHLEGGGGG[Fc] (not fully specified (bridges); cysteine pairing not given here; also: Fc fusion domain at position 45) [Con4 (N) 1K-WT] shows IC50 strictly lower than 2 nM.
1

Determine if MGAQQEECEWDPWTCEHMLEGGGGG[Fc] (not fully specified (bridges); printed as MGAQQEECEWDPWTCEHMLEGGGGG-Fc; cysteine pairing not given here; also: Fc fusion domain at position 26) [Con4 (N)] shows IC50 strictly lower than 2 nM.
1

Here's the next entry for you.
Determine if MGAQKFNPLDELEETLYEQFTFQQLEGGGGG[Fc(3)] [L1 (N)] shows IC50 strictly lower than 2 nM.
-1
